test summary: Induction of anti-CD3 antibodies-stimulated human T cell activation at 8 uM assessed fold increase in CD25 expression measured by ELISA assay; also: reference of the scale not given here
Format: functional, T cell line
recorded endpoint: fold change (FC)

> print(dat)
                                   compound  recorded.endpoint  measured.result
1  Cn1cnnc1C(F)(F)[C@](C)(F)c1cccc(N2Cc3c(cc(CN4CC[C@H](S(C)(=O)=O)C4)cc3C(F)(F)F)C2=O)c1   fold change (FC)          >=1.001
2  C[C@H](Cc1nncn1C)c1cccc(N2Cc3c(ccnc3C3CCC3)C2=O)c1   fold change (FC)          >=1.001
3  Cn1cnnc1C(F)(F)[C@](C)(F)c1cccc(N2Cc3c(cc(CN4CC(C#N)C4)cc3C(F)(F)F)C2=O)c1   fold change (FC)          >=1.001
4  Cn1cnnc1C(F)(F)C(C)(F)c1cccc(N2Cc3c(cc(CN4CC[C@@H](F)C4)cc3C(F)(F)F)C2=O)c1 (single isomer, unassigned)   fold change (FC)          >=1.001
5  CNS(=O)(=O)c1cc(C(=O)Nc2cccc([C@H](C)Cc3nncn3C)c2)nc(C(F)(F)F)c1   fold change (FC)          >=1.001
6  C[C@H](Cc1nncn1C)c1cccc(N2Cc3c(cc(C(=O)N4CC(O)C4)cc3C(F)(F)F)C2=O)c1   fold change (FC)          >=1.001
7  C[C@H](Sc1nncn1C)c1cccc(NC(=O)c2cc3cc(OCc4ccn[nH]4)ccc3cn2)c1   fold change (FC)            <=0.6
8  C[C@H](Cc1nncn1C)c1cccc(N2Cc3c(cc(CN4CC(F)C4)cc3C(F)(F)F)C2=O)c1   fold change (FC)          >=1.001

Challenge: GET /values?readout=fold change (FC)&item= C[C@H](Cc1nncn1C)c1cccc(N2Cc3c(cc(CO)cc3C(F)(F)F)C2=O)c1
Response given: >=1.001

Challenge: GET /values?readout=fold change (FC)&item= Cc1ccc(C(=O)Nc2cccc(C(C)C(F)(F)c3nncn3C)c2)nc1C1CC1 (stereo not given)
Response given: >=1.001

Challenge: GET /values?readout=fold change (FC)&item= C[C@H](Cc1nncn1C)c1cccc(NC(=O)c2cc(C(=O)N3CC[C@H](O)C3)cc(C(F)(F)F)n2)c1
Response given: >=1.001

Challenge: GET /values?readout=fold change (FC)&item= Cn1cnnc1CC1(c2cccc(N3Cc4c(cccc4C(F)(F)F)C3=O)c2)CC1
Response given: >=1.001

Challenge: GET /values?readout=fold change (FC)&item= C[C@H](Cc1nncn1C)c1cccc(NC(=O)c2cc(C(=O)N3C[C@@H](O)C[C@H]3C)ccn2)c1
Response given: <=0.6

Challenge: GET /values?readout=fold change (FC)&item= Cn1cnnc1C(F)(F)[C@](C)(F)c1cccc(N2Cc3c(cc(CN4CC[C@@H](C#N)C4)cc3C(F)(F)F)C2=O)c1
Response given: >=1.001

Challenge: GET /values?readout=fold change (FC)&item= C[C@H](Cc1nncn1C)c1cccc(NC(=O)c2cccc(C(C)(C)C)n2)c1
Response given: >=1.001

Challenge: GET /values?readout=fold change (FC)&item= C[C@H](Cc1nncn1C)c1cccc(N2Cc3c(cc([C@H](C)N4CC(O)C4)cc3C(F)(F)F)C2=O)c1
Response given: >=1.001

Challenge: GET /values?readout=fold change (FC)&item= C[C@H](Sc1nncn1C)c1cccc(NC(=O)c2ccnc(C3CC3)n2)c1
Response given: >=1.001

Challenge: GET /values?readout=fold change (FC)&item= C[C@H](Cc1nncn1C)c1cccc(N2Cc3c(cc(-c4ccn[nH]4)cc3C(F)(F)F)C2=O)c1
Response given: >=1.001

Challenge: GET /values?readout=fold change (FC)&item= Cc1ccnn1CC(C)c1cccc(NC(=O)c2cccc(C(F)(F)F)n2)c1 (stereo not given)
Response given: <=0.6

Challenge: GET /values?readout=fold change (FC)&item= C[C@H](Cc1nnc[nH]1)c1cccc(N2Cc3c(cccc3C(F)(F)F)C2=O)c1
Response given: <=0.6
